Assignment: determine reported IC50 for the given compounds.
target: GP IIb/IIIa (Homo sapiens, UniProt P05106+P08514); assay: In Vitro Solid Phase Purified GP IIb/IIIa Binding Assay (biotinylated fibrinogen); conditions: αIIbβ3 IC50 (uM), biotinylated fibrinogen binding to immobilized purified GP IIb/IIIa; mean ± spread
Sequence (P08514 32-887 limits assumed): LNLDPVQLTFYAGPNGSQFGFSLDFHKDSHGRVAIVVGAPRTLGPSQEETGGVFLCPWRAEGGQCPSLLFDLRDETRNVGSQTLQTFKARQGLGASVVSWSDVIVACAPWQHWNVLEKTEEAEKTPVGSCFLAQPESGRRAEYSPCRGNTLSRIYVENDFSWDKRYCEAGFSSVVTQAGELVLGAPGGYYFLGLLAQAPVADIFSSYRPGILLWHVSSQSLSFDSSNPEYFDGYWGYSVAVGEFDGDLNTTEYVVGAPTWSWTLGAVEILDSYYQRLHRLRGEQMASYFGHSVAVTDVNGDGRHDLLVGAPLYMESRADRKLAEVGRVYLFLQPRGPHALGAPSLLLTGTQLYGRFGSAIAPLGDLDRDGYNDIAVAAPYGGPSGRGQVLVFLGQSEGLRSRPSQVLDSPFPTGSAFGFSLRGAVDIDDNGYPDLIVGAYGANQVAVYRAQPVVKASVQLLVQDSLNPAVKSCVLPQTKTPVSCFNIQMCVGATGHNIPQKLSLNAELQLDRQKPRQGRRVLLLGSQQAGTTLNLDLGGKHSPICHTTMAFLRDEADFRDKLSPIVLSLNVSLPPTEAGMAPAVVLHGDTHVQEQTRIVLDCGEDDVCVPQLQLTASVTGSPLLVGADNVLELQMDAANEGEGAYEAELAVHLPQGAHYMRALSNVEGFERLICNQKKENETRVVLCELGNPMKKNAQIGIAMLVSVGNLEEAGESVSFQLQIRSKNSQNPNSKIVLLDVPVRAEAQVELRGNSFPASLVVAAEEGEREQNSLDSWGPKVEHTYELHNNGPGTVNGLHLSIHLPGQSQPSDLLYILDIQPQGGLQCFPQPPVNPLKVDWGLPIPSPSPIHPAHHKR
Sequence (P08514 891-1039 partner limits assumed): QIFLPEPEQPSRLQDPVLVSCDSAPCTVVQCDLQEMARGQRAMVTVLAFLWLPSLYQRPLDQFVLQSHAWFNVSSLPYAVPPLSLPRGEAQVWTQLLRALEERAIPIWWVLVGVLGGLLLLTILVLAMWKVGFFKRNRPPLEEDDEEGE
Sequence (P05106 27-788): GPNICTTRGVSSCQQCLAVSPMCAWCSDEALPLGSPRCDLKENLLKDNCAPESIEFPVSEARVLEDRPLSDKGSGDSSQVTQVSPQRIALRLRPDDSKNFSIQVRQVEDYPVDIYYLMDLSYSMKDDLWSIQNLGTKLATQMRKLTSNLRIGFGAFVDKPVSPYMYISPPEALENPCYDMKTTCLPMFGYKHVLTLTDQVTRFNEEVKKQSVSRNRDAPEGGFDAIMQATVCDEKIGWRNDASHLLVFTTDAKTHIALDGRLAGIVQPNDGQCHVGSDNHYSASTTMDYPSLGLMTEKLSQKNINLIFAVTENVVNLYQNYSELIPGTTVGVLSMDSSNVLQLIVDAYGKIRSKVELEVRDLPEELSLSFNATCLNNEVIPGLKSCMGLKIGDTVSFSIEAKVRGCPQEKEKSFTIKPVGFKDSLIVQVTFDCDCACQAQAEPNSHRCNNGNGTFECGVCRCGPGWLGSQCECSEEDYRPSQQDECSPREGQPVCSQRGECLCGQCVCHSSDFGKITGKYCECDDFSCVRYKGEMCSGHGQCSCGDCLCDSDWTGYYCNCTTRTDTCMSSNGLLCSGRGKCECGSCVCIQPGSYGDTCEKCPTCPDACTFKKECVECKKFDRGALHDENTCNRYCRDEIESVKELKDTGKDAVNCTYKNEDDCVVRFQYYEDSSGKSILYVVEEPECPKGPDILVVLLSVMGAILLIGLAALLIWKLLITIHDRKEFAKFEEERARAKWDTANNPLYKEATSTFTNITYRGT
I only need the number, in µM, no unit after it.

In: Which value of IC50 has been reported for O=C(O)CC(CC1CCN(C(=O)CCc2ccc3c(n2)NCCC3)CC1)C1CNc2ccccc2C1 (stereo not drawn) in the records?
Out: 13.8

In: What about O=C(O)CC(CC1CCN(C(=O)CCc2ccc3c(n2)NCCC3)CC1)c1cnc2c(c1)CCCC2 (racemic) ?
Out: 3.04

In: Next compound up: COc1ccc(C(CC(=O)O)CC2CCN(C(=O)CCc3ccc4c(n3)NCCC4)CC2)cn1 (single isomer, unassigned) [Cpd 28a]
Out: 1.83

In: Now the same for O=C(O)CC(c1cnc2ccccc2c1)C1CCN(C(=O)CCCc2ccc3c(n2)NCCC3)CC1 (stereo not drawn)
Out: 0.87

In: Param item: O=C(O)CC(C1CCN(C(=O)CCCc2ccc3c(n2)NCCC3)CC1)C1CNc2ccccc2C1 (stereo not drawn)
Out: 14.8

In: # repeat for COc1ccc(C(CC(=O)O)CC2CCN(C(=O)CCc3ccc4c(n3)NCCC4)CC2)cn1 (stereo not drawn) [Cpd 28]
Out: 6.1
